Tested on: OVCAR-3 ovarian
Assay: NCI tumour cell line growth inhibition, 48 h; in the data active means GI50 below about 0.43 µM; inactive means the rest
In this exercise, the only acceptable responses are active, inactive

Recorded results for 3 molecules are shown here.
Molecule | Classification
C[n+]1c2ccccc2nc2c(N)cc(N)cc21 | inactive
Cc1ccc(C2C3Cc4ccccc4C3=NN2c2ccc(S(=O)(=O)/N=c3\scc(-c4ccccc4)n3-c3ccccc3)cc2)cc1 (configuration not stated) | inactive
Nc1n[nH]c2ccc([C@@H]3Nc4cc5c(cc4[C@H]4C6CCC(C6)[C@@H]34)C(=O)NC5)cc12 (some centres not stated) | active

API: the following record is the query input.
Query: For "CN1CCc2nc3sc(C(N)=O)c(N)c3c(-c3cccs3)c2C1" , which call appears in the assay record?
Result: inactive
